assayed.system: T1, human CDH6 with EC3 removed, on HEK293T cells (HEK293T-hCDH6-EC3 deletion) (human, UniProt P55285 54-790)
T1 construct: Signal peptide not removed here
T1 sequence: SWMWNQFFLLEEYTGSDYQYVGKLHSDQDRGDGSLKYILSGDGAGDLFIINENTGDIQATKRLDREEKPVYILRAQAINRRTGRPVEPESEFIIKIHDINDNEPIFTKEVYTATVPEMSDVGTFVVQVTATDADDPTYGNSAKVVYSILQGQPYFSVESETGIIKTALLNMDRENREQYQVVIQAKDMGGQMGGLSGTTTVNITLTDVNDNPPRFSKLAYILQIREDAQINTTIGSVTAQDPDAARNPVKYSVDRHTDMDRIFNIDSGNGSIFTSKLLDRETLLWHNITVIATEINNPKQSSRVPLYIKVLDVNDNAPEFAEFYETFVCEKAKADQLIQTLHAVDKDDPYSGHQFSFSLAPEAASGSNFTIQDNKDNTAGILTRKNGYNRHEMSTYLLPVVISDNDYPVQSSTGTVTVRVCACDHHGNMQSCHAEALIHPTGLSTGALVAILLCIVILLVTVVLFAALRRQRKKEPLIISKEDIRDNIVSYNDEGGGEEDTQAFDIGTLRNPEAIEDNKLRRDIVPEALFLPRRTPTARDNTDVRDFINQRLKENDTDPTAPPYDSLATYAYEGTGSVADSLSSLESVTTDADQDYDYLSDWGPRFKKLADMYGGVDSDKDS
assay: FACS, HEK293T-hCDH6-EC3 deletion cells
assay.metric: Max MFI (MFI)
Quick reminder: number only, in MFI, skip the unit.

{"binder": "CHI-CDH6-3 (antibody, human IgG1, kappa, V domains shown, also called CH1-CDH6-3; chimeric antibody of murine CDH6-3) VH: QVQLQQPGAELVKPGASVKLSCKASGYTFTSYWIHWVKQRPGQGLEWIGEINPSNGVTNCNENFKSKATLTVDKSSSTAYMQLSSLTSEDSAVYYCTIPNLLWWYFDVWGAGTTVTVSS VL: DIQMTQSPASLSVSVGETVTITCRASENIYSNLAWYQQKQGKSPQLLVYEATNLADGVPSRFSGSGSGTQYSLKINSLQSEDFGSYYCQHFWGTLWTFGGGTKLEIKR", "Max MFI / MFI": 689}

Specify reported Max MFI for the binder shown: CHI-CDH6-12 (antibody, human IgG1, kappa, V domains shown, also called CH1-CDH6-12; chimeric antibody of murine CDH6-12) VH: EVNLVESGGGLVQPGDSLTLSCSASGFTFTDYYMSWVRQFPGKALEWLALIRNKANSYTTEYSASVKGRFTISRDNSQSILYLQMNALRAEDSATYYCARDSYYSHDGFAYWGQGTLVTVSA VL: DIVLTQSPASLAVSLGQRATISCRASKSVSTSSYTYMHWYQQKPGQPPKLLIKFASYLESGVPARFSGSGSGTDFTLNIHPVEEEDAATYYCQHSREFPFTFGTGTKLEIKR
70

Answer with the recorded Max MFI for the binder listed here: NOV0712 (antibody, human IgG1, kappa, V domains shown, Positive control, variable regions from WO2018212136A1; also called positive control anti-human CDH6 antibody) VH: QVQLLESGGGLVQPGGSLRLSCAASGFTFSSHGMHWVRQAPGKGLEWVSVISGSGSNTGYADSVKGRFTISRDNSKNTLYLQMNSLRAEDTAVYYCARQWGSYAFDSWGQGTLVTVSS VL: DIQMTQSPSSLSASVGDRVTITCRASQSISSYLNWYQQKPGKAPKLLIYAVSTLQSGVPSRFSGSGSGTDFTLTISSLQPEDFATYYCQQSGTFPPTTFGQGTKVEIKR
16300

Give the measured Max MFI for CHI-CDH6-5 (antibody, human IgG1, kappa, V domains shown, also called CH1-CDH6-5; chimeric antibody of murine CDH6-5) VH: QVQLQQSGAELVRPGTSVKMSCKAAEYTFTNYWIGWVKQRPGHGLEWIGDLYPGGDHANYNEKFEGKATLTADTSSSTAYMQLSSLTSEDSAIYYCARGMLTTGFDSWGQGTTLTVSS VL: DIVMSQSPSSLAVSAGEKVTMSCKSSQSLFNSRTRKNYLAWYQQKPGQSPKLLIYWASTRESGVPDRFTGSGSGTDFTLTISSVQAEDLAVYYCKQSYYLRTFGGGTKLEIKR
12200

Specify reported Max MFI for the binder shown: CHI-CDH6-14 (antibody, human IgG1, kappa, V domains shown, also called CHI-hCDH6-14; CH1-CDH6-14) VH: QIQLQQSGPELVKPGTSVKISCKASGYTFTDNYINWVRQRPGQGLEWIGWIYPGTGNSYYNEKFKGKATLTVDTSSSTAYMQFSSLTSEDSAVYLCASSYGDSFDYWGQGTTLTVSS VL: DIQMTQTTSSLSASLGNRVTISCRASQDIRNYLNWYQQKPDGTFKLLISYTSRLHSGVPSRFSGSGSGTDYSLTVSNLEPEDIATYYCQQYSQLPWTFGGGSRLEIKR
755

Using the record for CHI-CDH6-7 (antibody, human IgG1, kappa, V domains shown, also called CH1-CDH6-7; chimeric antibody of murine CDH6-7) VH: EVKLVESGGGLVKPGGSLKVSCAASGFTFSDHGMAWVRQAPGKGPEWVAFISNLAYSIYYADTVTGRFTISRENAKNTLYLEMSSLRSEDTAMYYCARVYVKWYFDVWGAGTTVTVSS VL: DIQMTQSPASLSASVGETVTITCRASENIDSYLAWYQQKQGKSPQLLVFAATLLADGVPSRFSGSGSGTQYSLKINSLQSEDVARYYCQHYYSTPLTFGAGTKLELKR , state its measured Max MFI.
9060
